# ASSAY TEXT: self-splicing fitness, log relative to wild type (ln ratio); higher = more splicing; Tetrahymena group I intron in knt gene, E. coli kanamycin selection, DiMSum; sequences stand for … in CUCUCU…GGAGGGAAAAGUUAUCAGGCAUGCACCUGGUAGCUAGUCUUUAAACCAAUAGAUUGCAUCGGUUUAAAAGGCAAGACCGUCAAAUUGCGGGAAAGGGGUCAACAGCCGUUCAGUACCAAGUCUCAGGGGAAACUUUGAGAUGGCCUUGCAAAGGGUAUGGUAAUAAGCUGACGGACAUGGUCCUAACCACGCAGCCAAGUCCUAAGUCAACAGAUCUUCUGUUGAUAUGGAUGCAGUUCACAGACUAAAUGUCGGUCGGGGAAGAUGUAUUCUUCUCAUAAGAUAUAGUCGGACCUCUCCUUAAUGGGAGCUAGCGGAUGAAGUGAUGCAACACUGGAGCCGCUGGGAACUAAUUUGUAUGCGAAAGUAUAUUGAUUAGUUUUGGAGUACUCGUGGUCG;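 further: selection with 25 µg/mL kanamycin versus none on LB agar overnight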
# REPORTED CONDITIONS: 30 °C
Reported self-splicing fitness (ln) values for the following sequences.
Response field accepts a number only; no unit should be typed.

Answered examples (3):
SEQ TEXT	self-splicing fitness (ln)
AUGAAGCAAUAUUACGACGA	0.221
GCUAAGCAAUAUUACGCGAC	-2.11
GUAGAGCAAUAUUACGCCGU	-1.3

### Prompt I would be grateful if you could share the reported self-splicing fitness (ln) for UAUCAGCAAUAUUACGGAGU .
### Response -2.09

### Prompt I would be grateful if you could share the reported self-splicing fitness (ln) for CUUGAGCAAUAUUACGUGCC .
### Response -2.26

### Prompt I would be grateful if you could share the reported self-splicing fitness (ln) for CCCUAGCAAUAUUACGCGGC .
### Response -1.47

### Prompt I would be grateful if you could share the reported self-splicing fitness (ln) for UACAAGCAAUAUUACGCGCU .
### Response -1.39

### Prompt I would be grateful if you could share the reported self-splicing fitness (ln) for UGCCAGCAAUAUUACGAUAA .
### Response -1.88

### Prompt I would be grateful if you could share the reported self-splicing fitness (ln) for GCUCAGCAAUAUUACGGGUG .
### Response -0.435

### Prompt I would be grateful if you could share the reported self-splicing fitness (ln) for AGAGAGCAAUAUUACGACCG .
### Response -2.92
